Would you mind telling me the reported log10(GI50 at 72 h) of each entry?
# procedure details: Cytotoxicity against human HeLa cells assessed as growth inhibition after 72 hrs by MTT assay
# Assay type: cell-based
# recorded conditions: HeLa cells
Form field - Quantity: GI50 at 72 h; Unit: µg/mL; Scale: log10

Here is how some compounds turned out for log10(GI50 at 72 h).
{"smiles text": "O=C(CC(=O)c1ccccc1O)c1cc2ccccc2s1", "value": 0.90}
{"smiles text": "CC(=O)O[C@H]1C(=O)[C@@]2(C)[C@H]([C@H](OC(=O)c3ccccc3)[C@]3(O)C[C@H](OC(=O)[C@H](O)[C@@H](NC(=O)c4ccccc4)c4ccccc4)C(C)=C1C3(C)C)[C@]1(OC(C)=O)CO[C@@H]1C[C@@H]2O", "value": -2.40}
{"smiles text": "Cc1ccc2oc(-c3cc4ccccc4s3)cc(=O)c2c1", "value": 1.19}
{"smiles text": "O=C(CC(=O)c1cc(Cl)ccc1O)c1cc2ccccc2s1", "value": 0.65}
{"smiles text": "Cc1ccc(C(=O)CC(=O)c2cc3ccccc3s2)c(O)c1", "value": 1.36}
{"smiles text": "Cc1ccc(O)c(C(=O)CC(=O)c2cc3ccccc3s2)c1", "value": 0.85}

Provide reported log10(GI50 at 72 h) for each item, in the same order as listed.
1. O=C(CC(=O)c1cc(Br)ccc1O)c1cc2ccccc2s1
2. Cc1cc2oc(-c3cc4ccccc4s3)cc(=O)c2cc1Cl

// result
1: 0.83; 2: 1.33
